Assay: refractive index (Na D-line) (dimensionless); xn = mol fraction of the nth substance listed
Conditions: 293.15 K; 101 kPa; Liquid; Standard Abbe refractometry; x1 = 0.6
Task for the reader: assign each of the following compounds its reported refractive index.
Give bare numbers.

Take a look at these entries with their results.
1. C=C[Si](C)(C)O[Si](C)(C)C=C [1,3-diethenyl-1,1,3,3-tetramethyldisiloxane] + COc1ccccc1; 1.43925
2. C=C[Si](C)(C)O[Si](C)(C)C=C [1,3-diethenyl-1,1,3,3-tetramethyldisiloxane] + Clc1ccccc1; 1.43999
3. C=C[Si](C)(C)O[Si](C)(C)C=C [1,3-diethenyl-1,1,3,3-tetramethyldisiloxane] + Fc1ccccc1; 1.42446

# input for lookup
Problem: Look at this compound and give its reported refractive index. C=C[Si](C)(C)O[Si](C)(C)C=C [1,3-diethenyl-1,1,3,3-tetramethyldisiloxane] + CCc1ccccc1
Result: 1.43514
